I'd appreciate it if you could supply inhibition at 10 µM values for the items below.
Test system: A431 (epidermoid carcinoma)
Assay: Antiproliferative activity (CCK-8 cell viability), A431
Format: cell-based
Details: Homo sapiens, A-431, Compound concentration: 10 μM, 72 h, read-out: Antiproliferative activity in cancerous cells, A431 (inhibition of cell growth)

Task: Give reported inhibition at 10 µM value for O=C(O)CC1=C(Cc2ccc(C(F)(F)F)cc2)/C(=C/c2cccc(COc3ccccc3)c2)c2ccc(F)cc21
Result: ≥ 50%

Task: Give reported inhibition at 10 µM value for COc1ccc2c(c1)C(CC(=O)O)=C(C)/C2=C/c1cccc(COc2ccccc2)c1
Result: < 30%

Task: Give reported inhibition at 10 µM value for CCc1ccc2c(c1)C(CC(=O)O)=C(C)/C2=C/c1ccc(COCc2ccc(F)cc2)cc1
Result: 30 to 50%

Task: Give reported inhibition at 10 µM value for CC1=C(CC(=O)O)c2cc(F)ccc2/C1=C\c1cccc(CNc2ccccc2)c1
Result: < 30%

====

Tested on: A431 (epidermoid carcinoma)
Experiment: Antiproliferative activity (CCK-8 cell viability), A431
Type: cell-based
Conditions: Homo sapiens, A-431, Compound concentration: 10 μM, 72 h, read-out: Antiproliferative activity in cancerous cells, A431 (inhibition of cell growth)
Description: The antiproliferative activity of a compound was determined in the following cell lines: MDA-MB-231 (breast cancer), HepG2 (liver cancer), SW480 (colon cancer), B16F10 (malignant melanoma), A431 (epidermoid carcinoma), A549 (lung adenocarcinoma), and HeLa (cervical cancer). […] Briefly cells were seeded in a 96-well plate at a density of 2,000-5,000 cells/well. […] After incubation at 37° C. for 4 h, the absorbance value of each well was determined using a multi-well plate reader at 450 nm. […]
Assay Readout: inhibition at 10 µM

Task: Give reported inhibition at 10 µM value for O=C(O)CC1=C(CC2CCCC2)/C(=C/c2cccc(COc3ccccc3)c2)c2ccc(F)cc21
Result: ≥ 50%

Task: Give reported inhibition at 10 µM value for CC1=C(CC(=O)O)c2cccc(F)c2/C1=C\c1cccc(COc2ccccc2)c1
Result: < 30%

Task: Give reported inhibition at 10 µM value for CC1=C(CC(=O)O)c2c(F)cc(F)cc2/C1=C\c1ccc(C(F)(F)F)cc1
Result: ≥ 50%

Task: Give reported inhibition at 10 µM value for CCCC1=C(CC(=O)O)c2cc(F)ccc2/C1=C\c1ccc(COc2ccccc2)cc1
Result: ≥ 50%

Task: Give reported inhibition at 10 µM value for CC1=C(CC(=O)O)c2cc(F)ccc2/C1=C\c1cccc(COc2cccc(C(C)(C)C)c2)c1
Result: 30 to 50%

Task: Give reported inhibition at 10 µM value for CC1=C(CC(=O)O)c2cc(F)ccc2/C1=C\c1ccc(Oc2ccc(I)cc2)cc1
Result: ≥ 50%

Task: Give reported inhibition at 10 µM value for CCC1=C(CC(=O)O)c2cc(F)ccc2/C1=C\c1cccc(Oc2ccccc2)c1
Result: ≥ 50%

Task: Give reported inhibition at 10 µM value for CC1=C(CC(=O)O)c2cc(C)ccc2/C1=C\c1ccc(CCc2ccccc2)cc1
Result: ≥ 50%

Task: Give reported inhibition at 10 µM value for CC1=C(CC(=O)O)c2cc(Cl)ccc2/C1=C\c1cccc(Oc2ccc(C(F)(F)F)cc2)c1
Result: ≥ 50%

Data origin: patent US20260184663A1
